# test.target: Neurogenic locus notch homolog protein 4 (Homo sapiens)
# Sequence (Q99466 whole entry, the tested form may be a part): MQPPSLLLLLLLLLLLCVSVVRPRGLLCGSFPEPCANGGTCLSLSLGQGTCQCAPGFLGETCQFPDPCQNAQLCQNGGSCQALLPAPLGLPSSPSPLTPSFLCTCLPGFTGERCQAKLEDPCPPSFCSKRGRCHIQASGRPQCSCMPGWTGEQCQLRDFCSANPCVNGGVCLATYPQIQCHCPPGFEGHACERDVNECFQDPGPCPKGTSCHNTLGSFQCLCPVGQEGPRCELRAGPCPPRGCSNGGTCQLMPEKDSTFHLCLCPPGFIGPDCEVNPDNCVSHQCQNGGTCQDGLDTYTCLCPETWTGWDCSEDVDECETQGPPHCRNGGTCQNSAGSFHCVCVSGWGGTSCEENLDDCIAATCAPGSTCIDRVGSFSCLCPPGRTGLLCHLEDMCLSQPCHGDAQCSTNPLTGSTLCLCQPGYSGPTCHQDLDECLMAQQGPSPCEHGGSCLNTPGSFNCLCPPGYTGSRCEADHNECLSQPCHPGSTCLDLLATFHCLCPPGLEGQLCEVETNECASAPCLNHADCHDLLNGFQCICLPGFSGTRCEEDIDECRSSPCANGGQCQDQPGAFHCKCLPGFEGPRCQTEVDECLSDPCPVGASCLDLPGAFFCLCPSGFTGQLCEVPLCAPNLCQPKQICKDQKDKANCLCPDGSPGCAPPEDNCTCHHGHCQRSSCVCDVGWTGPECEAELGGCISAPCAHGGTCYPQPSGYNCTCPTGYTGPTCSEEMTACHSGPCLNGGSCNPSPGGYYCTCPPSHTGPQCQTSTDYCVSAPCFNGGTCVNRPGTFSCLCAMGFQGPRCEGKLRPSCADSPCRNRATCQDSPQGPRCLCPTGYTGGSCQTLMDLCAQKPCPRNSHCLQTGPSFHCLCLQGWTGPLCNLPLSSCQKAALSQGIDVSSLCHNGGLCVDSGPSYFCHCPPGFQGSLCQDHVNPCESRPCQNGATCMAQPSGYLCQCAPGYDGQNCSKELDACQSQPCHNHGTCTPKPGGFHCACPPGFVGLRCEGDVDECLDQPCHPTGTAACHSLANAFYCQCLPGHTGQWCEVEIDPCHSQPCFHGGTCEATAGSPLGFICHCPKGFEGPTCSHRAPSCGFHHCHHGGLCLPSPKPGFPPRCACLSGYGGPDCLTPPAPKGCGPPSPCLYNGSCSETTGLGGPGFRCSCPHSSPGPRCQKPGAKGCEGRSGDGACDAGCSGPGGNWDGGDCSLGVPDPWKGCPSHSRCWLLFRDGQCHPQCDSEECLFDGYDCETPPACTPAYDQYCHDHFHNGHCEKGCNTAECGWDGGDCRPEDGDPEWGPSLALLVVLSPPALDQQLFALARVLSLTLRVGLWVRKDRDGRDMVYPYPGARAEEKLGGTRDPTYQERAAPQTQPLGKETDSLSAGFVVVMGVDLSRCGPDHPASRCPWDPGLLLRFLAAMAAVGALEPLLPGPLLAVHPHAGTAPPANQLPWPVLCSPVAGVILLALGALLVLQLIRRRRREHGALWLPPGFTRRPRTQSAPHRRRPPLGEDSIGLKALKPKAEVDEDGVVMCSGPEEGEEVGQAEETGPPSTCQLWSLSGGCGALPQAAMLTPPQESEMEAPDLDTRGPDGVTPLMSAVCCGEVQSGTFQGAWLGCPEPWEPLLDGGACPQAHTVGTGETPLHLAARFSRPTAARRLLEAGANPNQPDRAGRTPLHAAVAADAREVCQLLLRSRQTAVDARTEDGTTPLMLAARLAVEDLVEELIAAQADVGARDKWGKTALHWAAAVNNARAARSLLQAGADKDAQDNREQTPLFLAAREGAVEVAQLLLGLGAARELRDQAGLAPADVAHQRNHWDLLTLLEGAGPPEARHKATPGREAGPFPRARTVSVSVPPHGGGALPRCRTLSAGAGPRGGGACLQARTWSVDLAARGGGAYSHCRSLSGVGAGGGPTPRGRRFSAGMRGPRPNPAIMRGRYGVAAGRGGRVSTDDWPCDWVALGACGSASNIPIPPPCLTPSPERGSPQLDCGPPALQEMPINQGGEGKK
# method.summary: Inhibition of Notch4 intracellular domain fragment transfected in human HeLa cells co-transfected with CBF1-PGL3 luciferase reporter vector by transactivation assay

[
  {
    "smiles.input": "CN1C(=O)[C@@H](NC(=O)[C@H](CCC(F)(F)F)[C@@H](C(N)=O)c2ccccc2)N=C(c2ccccc2)c2ccccc21",
    "output.unit": "nM",
    "IC50": 3
  }
]
